Origin of values: patent US20250027068A1

ASSAYED_SYSTEM: pooled human IgG (human); note: test concentration or dose not given here
ASSAY_METHOD_TEXT: cell-based or functional assay
PROPERTY_LABEL: Enzyme Activity Endpoint Assay (purified): IgG (ng/µL)
Give the quantity in ng/µL, number only.

PRT-199 (enzyme) MEVVEVWPYGQNPNGKTEILSQTEDSESLQRLRDIEDFQAEKKKQNVVYTKWLDGVDVKDHDFRKIVDGNIAYYATPLLNGRGFYDINKDFNRDSDKCAAAVAANMFHYWLDRNRDNVDRFLRQNPEKHGIIELPDGQLKLSDFLNTYESDDGYRDKSKLFDFISNNFNGPVWTDKLLDNYINGYAYNYKYGRTIEDPTKNTSKINFFKEVFNEKILTNNHSIRNQNEFSVLLSEALYTGKAIGLSYGPAGLRHSLGHIISVWGADLDADGNVVAIYVTDSDDKKLTIGDERVGLKRYKISTDDEGRLRLTAYEETHNTGGQIRGLWTLDTGKQAWADYFDKTEQTGTDQAEQLEHHHHHH
797
PRT-225 (enzyme) MEVVEVWPYGQNPNGKTEILSQTEDSESLQRLRDIEDFQAEKKKENVVYTKWLDGVDVKDHDFRKIVDGNIEYYATPLLNGRGFYDINKDFNRDSDKCAAAVAANMFHYWLDINRDNVDRFLRQNPEKHGIIELPDGQLKLSDFLNTYESDHGYRDKSKLFDFISNNFNGPVWTDKLLDNYINGYAYNYKYGRTIEDPTKNTSKINFFKEVFNEKILTNNHSIRNQNEFSVLLSEALYTGKAIGLSYGPAGLRHSLGHIISVWGADLDADGNVVAIYVTDSDDKKLTIGDERVGLKRYKISTDDENRARLTAYEETDNTGGQIRGLWTLDTGKQAWADYFDKTEQTGTDQAEQLEHHHHHH
1500
PRT-212 (enzyme) MEVVEVWPYGQNPNGKTEILSQTEDSESLQRLRDIEDFQAEKKKEGVVYTKWLDGVDVKDHDFRKIVDGNIEYYATPLLNGRGFYDINKDFNQDSDKCAAAVAANMFHYWLDRNRDNVDRFLSQNPEKHGIIELPDGQLKLSDFLNTYESDDGYRDKSKLFDLISNNFNGPVWTDKLLDNYINGYAYNYKYGRTIEDPTKNTSKINFFKEVFNEKILTNIHSIRNQNEFSDKLSEALYTGKAIGLSYGPAGLRHSLGHIISVWGADLDEDGNVVAIYVTDSDDKKLTIGDERVGLKRYKVSTDDEGRLRLTAYEETDNTGGEIRGIWTLDTGKQAWADYFDKTEQTGTDQAEQLEHHHHHH
1270

Please examine the following record next.
-- ask Which Enzyme Activity Endpoint Assay (purified): IgG is reported for this binder? PRT-211 (enzyme) MEVVEVWPYGQNPNGKTEILSQTEDSESLQRLRDIEDFQAEKKKQGVVYTKWLDGVDVDDHDFRKIVDGNIAYYATPLLNGKGFYDINKDFNRDSDKCAAAVAANMFHYWLDQNRDNVDRFLRQNPEKHGIIELPDGQLKLSDFLNTYESDNGYRDKSKLFDFISNNFNGPVWTDKLLDNYINGYAYNYKYGRTIEDPTKNTSKINFFKDVFNEKILTNIHSIRNYNTFSNLLSEALYTGKAIGLSYGPAGLRHSLGHIISVWGADLDEDGNVVAIYVTDSDDKKLTIGDERVGLKRYKISTDDEGRARLTAYEENDNTGGEIRGLWTLDTGKQAWADYFDKTEQTGTDQAEQLEHHHHHH
-- reply 2190
